# residual activity per record follows
biological target: UniProt:Q9UBS0; test: radiometric filter-binding kinase assay, Kinase HotSpot; settings: compound 0.5 µM; ATP 10 µM
Sequence (Q9UBS0 whole entry, looked up): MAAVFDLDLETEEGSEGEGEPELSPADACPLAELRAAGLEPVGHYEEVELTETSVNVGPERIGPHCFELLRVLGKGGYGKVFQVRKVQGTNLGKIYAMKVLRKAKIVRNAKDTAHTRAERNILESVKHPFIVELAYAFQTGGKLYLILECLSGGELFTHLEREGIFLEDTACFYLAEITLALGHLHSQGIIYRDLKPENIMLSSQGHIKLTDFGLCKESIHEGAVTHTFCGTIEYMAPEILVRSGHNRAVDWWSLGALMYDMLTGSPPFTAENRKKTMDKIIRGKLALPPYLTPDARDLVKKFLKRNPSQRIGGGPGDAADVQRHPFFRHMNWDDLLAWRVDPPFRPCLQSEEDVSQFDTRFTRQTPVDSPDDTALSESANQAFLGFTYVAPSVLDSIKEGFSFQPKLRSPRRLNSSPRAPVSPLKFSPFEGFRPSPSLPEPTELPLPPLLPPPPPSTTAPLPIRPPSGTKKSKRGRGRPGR
metricName: residual activity (%)

> print(dat)
                                 givensmiles  readoutnumber
 1     O=c1cc(N2CCOCC2)oc2c(-c3ccccc3)cccc12           94.9
 2  O=c1c(-c2ccc(F)cc2)c(-c2ccncc2)[nH]n1-c1ccc(Cl)cc1           95.5
 3          O=C(c1ccccc1)c1ccc(N2CCOCC2)cc1O            100
 4  COc1cc2c(Nc3ccc(Br)cc3F)ncnc2cc1OCC1CCN(C)CC1            101
 5          COc1cccc(-c2cc(=O)c3ccccc3o2)c1N           84.5
 6   Cc1cc(Nc2nc(-c3ccccc3)nc3ccccc23)n[nH]1           99.7
 7        CCCCc1c(-c2ccc(O)cc2)[nH]c2nccnc12            102
 8  O=S(=O)(NCCNC/C=C/c1ccc(Br)cc1)c1cccc2cnccc12           71.9
 9  COc1cc2c(N3CCN(C(=O)Nc4ccc(OC(C)C)cc4)CC3)ncnc2cc1OCCCN1CCCCC1            102
10  N/C(=N\N=C/c1ccc(-c2cccc([N+](=O)[O-])c2)o1)N[N+](=O)[O-]            102
11    N#Cc1c(NC(=O)c2cccc3ccccc23)sc2c1CCCC2            100

* * *

target: LCK (human) (UniProt P06239); test: radiometric filter-binding kinase assay, Kinase HotSpot; conditions: compound 0.5 µM; ATP 10 µM
Sequence (P06239 whole entry, looked up): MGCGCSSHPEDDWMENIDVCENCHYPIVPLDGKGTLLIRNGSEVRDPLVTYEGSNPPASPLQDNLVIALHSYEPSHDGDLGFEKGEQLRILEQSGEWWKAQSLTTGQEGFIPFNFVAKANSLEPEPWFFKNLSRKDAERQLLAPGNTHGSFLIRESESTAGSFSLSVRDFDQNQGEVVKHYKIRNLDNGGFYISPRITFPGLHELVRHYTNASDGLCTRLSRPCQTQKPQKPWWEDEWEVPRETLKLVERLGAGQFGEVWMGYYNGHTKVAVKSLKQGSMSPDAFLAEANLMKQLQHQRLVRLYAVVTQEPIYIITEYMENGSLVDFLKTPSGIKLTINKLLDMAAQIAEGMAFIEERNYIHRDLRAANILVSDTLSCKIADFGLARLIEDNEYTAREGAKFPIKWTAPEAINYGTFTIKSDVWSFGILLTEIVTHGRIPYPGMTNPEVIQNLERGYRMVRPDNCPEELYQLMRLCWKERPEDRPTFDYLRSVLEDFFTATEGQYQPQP
residual activity vs 90%: at or above is Yes, below is No.

> print(dat)
                                givensmiles  cat
1  COc1cc2c(N3CCN(C(=O)Nc4ccc(OC(C)C)cc4)CC3)ncnc2cc1OCCCN1CCCCC1   No
2          COc1cccc(-c2cc(=O)c3ccccc3o2)c1N  Yes
3  c1ccc(-c2cnc(Nc3ccc(OCCN4CCCC4)cc3)s2)cc1   No
4    N#Cc1c(NC(=O)c2cccc3ccccc23)sc2c1CCCC2  Yes
5  N/C(=N\N=C/c1ccc(-c2cccc([N+](=O)[O-])c2)o1)N[N+](=O)[O-]  Yes
6        CCCCc1c(-c2ccc(O)cc2)[nH]c2nccnc12   No

* * *

molecular target: FYN (human) (UniProt P06241); test: radiometric filter-binding kinase assay, Kinase HotSpot; conditions: compound 0.5 µM; ATP 10 µM
Sequence (P06241 whole entry, looked up): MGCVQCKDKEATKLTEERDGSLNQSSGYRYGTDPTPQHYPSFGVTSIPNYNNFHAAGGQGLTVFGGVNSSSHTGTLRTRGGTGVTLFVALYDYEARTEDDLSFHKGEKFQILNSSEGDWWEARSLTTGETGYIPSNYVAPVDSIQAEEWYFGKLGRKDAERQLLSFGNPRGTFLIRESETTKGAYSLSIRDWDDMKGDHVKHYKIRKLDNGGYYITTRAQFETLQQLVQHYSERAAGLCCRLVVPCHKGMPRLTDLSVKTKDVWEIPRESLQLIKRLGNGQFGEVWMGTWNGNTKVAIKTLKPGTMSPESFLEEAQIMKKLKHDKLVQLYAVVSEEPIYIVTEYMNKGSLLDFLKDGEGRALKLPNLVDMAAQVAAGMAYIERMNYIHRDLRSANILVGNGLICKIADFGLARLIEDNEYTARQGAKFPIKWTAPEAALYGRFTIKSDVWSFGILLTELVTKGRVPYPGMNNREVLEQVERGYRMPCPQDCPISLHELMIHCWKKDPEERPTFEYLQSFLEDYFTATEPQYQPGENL
Quick reference: residual activity of the listed items.
metricName: residual activity (%)

> print(dat)
                                 givensmiles                        target  unitofmeasure  readoutnumber
 1  COc1cc2c(N3CCN(C(=O)Nc4ccc(OC(C)C)cc4)CC3)ncnc2cc1OCCCN1CCCCC1  FYN (human) (UniProt P06241)              %           94.8
 2  O=C1NC(=O)c2c1c1c3ccccc3[nH]c1c1[nH]c3cc(Br)ccc3c21  FYN (human) (UniProt P06241)              %           95.2
 3                   Nc1ncnc2c1cnn2-c1ccccc1  FYN (human) (UniProt P06241)              %           97.8
 4   Cc1cc(Nc2nc(-c3ccccc3)nc3ccccc23)n[nH]1  FYN (human) (UniProt P06241)              %             40
 5        CCCCc1c(-c2ccc(O)cc2)[nH]c2nccnc12  FYN (human) (UniProt P06241)              %           62.1
 6    N#Cc1c(NC(=O)c2cccc3ccccc23)sc2c1CCCC2  FYN (human) (UniProt P06241)              %            102
 7  N#CCCc1ccc2c(c1)-c1[nH]c3ccc([N+](=O)[O-])cc3c1CC(=O)N2  FYN (human) (UniProt P06241)              %           52.2
 8  N/C(=N\N=C/c1ccc(-c2cccc([N+](=O)[O-])c2)o1)N[N+](=O)[O-]  FYN (human) (UniProt P06241)              %            101
 9  N#C/C(=C1/Nc2ccccc2S1)c1ccnc(NCCc2cccnc2)n1  FYN (human) (UniProt P06241)              %           93.1
10     O=c1cc(N2CCOCC2)oc2c(-c3ccccc3)cccc12  FYN (human) (UniProt P06241)              %            100
11  O=c1c2ccccc2[nH]c(=S)n1CCN1CCC(=C(c2ccc(F)cc2)c2ccc(F)cc2)CC1  FYN (human) (UniProt P06241)              %            102
12  COc1cc2c(Nc3ccc(Br)cc3F)ncnc2cc1OCC1CCN(C)CC1  FYN (human) (UniProt P06241)              %           48.2
13  Cn1cc(/C=C2\C(=O)Nc3ccc(S(N)(=O)=O)cc32)c2ccccc21  FYN (human) (UniProt P06241)              %           45.7
14      COc1cc2ncnc(Nc3ccc(O)c(Br)c3)c2cc1OC  FYN (human) (UniProt P06241)              %           80.4
15  O=S(=O)(NCCNC/C=C/c1ccc(Br)cc1)c1cccc2cnccc12  FYN (human) (UniProt P06241)              %            107
16  COc1cc2c(cc1OC)-c1[nH]nc(Nc3cccc(F)c3)c1C2  FYN (human) (UniProt P06241)              %           73.4
17  O=c1[nH]c2ccccc2n1C1CCN(Cc2ccc(-c3nc4cc5[nH]cnc5cc4nc3-c3ccccc3)cc2)CC1  FYN (human) (UniProt P06241)              %            101
18  O=C(O)c1ccc2c3c1cccc3c(=O)n1c3ccccc3nc21  FYN (human) (UniProt P06241)              %             94
19  FC(F)(F)c1ccc(/C=C/c2nc(COc3ccc(CCCCn4ccnn4)cc3)co2)cc1  FYN (human) (UniProt P06241)              %             97
20          O=C(c1ccccc1)c1ccc(N2CCOCC2)cc1O  FYN (human) (UniProt P06241)              %            106
21  O=c1c(-c2ccc(F)cc2)c(-c2ccncc2)[nH]n1-c1ccc(Cl)cc1  FYN (human) (UniProt P06241)              %           94.8
22  O=C1NC(=O)c2cc(Nc3ccc(F)cc3)c(Nc3ccc(F)cc3)cc21  FYN (human) (UniProt P06241)              %           99.4

* * *

residual activity values for the molecules below.
molecular target: CDC42BPB (human) (UniProt Q9Y5S2); test: radiometric filter-binding kinase assay, Kinase HotSpot; conditions: compound 0.5 µM; ATP 10 µM
Sequence (Q9Y5S2 whole entry, looked up): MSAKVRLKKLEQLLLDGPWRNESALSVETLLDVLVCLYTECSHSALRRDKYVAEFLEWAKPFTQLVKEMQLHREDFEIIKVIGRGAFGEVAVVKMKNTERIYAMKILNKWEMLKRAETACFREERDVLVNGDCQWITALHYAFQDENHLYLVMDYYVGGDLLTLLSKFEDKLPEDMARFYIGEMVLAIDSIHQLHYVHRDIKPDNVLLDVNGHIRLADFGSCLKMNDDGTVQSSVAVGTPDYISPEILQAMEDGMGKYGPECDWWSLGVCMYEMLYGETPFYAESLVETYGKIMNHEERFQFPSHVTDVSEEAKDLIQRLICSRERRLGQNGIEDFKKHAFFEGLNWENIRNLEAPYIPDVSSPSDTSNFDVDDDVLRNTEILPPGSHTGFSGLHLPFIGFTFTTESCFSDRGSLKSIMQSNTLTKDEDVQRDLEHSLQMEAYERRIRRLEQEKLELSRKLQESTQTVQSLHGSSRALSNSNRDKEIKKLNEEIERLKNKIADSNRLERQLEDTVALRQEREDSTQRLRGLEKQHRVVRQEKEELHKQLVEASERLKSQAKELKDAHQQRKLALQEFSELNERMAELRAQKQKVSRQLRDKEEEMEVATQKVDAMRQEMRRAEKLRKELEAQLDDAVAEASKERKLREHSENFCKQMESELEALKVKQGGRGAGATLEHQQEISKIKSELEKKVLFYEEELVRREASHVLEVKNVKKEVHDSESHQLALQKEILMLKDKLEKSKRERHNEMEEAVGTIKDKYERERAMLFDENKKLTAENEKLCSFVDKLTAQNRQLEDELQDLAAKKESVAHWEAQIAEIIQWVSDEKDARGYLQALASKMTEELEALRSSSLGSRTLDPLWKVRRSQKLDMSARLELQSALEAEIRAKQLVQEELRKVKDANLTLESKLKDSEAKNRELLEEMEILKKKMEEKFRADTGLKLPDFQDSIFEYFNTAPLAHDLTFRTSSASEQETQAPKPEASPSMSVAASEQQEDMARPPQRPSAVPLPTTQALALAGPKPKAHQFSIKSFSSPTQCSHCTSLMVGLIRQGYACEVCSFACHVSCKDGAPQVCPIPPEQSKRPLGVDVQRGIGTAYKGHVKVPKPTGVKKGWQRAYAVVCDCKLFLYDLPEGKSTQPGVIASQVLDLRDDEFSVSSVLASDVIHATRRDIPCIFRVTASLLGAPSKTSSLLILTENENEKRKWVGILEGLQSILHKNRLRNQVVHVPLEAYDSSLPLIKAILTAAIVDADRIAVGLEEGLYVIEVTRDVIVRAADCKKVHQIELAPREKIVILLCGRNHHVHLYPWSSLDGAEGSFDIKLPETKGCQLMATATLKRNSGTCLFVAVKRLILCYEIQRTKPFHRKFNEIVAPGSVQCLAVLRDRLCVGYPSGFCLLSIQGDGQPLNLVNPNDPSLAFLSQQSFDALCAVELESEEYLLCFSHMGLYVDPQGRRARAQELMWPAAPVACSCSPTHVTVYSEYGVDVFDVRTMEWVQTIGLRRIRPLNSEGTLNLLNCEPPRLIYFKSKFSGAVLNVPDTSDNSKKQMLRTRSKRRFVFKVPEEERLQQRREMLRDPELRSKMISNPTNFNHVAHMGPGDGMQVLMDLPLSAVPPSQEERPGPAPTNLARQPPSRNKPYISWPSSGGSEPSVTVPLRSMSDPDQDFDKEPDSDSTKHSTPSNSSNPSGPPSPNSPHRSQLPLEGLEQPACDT
metricName: residual activity

> print(dat)
                                givensmiles                             target         metricname  result
1  O=c1c(-c2ccc(F)cc2)c(-c2ccncc2)[nH]n1-c1ccc(Cl)cc1  CDC42BPB (human) (UniProt Q9Y5S2)  residual activity    103%
2      COc1cc2ncnc(Nc3ccc(O)c(Br)c3)c2cc1OC  CDC42BPB (human) (UniProt Q9Y5S2)  residual activity     98%
3  N/C(=N\N=C/c1ccc(-c2cccc([N+](=O)[O-])c2)o1)N[N+](=O)[O-]  CDC42BPB (human) (UniProt Q9Y5S2)  residual activity   95.4%

* * *

residual activity for assorted molecules
molecular target: YES1 (human); assay: radiometric filter-binding kinase assay, Kinase HotSpot; settings: compound 0.5 µM; ATP 10 µM
metricName: residual activity (%)

> print(dat)
                                givensmiles        target         metricname  readoutnumber
1  O=C(O)c1ccc2c3c1cccc3c(=O)n1c3ccccc3nc21  YES1 (human)  residual activity           96.6
2  FC(F)(F)c1ccc(/C=C/c2nc(COc3ccc(CCCCn4ccnn4)cc3)co2)cc1  YES1 (human)  residual activity             85
3                   Nc1ncnc2c1cnn2-c1ccccc1  YES1 (human)  residual activity           93.7
4  O=C1NC(=O)c2cc(Nc3ccc(F)cc3)c(Nc3ccc(F)cc3)cc21  YES1 (human)  residual activity           86.6
5   Cc1cc(Nc2nc(-c3ccccc3)nc3ccccc23)n[nH]1  YES1 (human)  residual activity           20.4
6  O=c1c2ccccc2[nH]c(=S)n1CCN1CCC(=C(c2ccc(F)cc2)c2ccc(F)cc2)CC1  YES1 (human)  residual activity           99.2
